- study_system: Ba/F3 cells EML4-ALK wt (variant 1) (Homo sapiens, UniProt Q9UM73)
- Construct: echinoderm microtubule-associated protein-like 4 (EML4) gene and the ALK tyrosine kinase domain; host or cells: Ba/F3 (RIKEN), retroviral pMSCV-puro; the other entry of the earlier key: EML4 (Q9HC35, Echinoderm microtubule-associated protein-like 4)
- Sequence (Q9UM73 with tags, fused parts or gaps): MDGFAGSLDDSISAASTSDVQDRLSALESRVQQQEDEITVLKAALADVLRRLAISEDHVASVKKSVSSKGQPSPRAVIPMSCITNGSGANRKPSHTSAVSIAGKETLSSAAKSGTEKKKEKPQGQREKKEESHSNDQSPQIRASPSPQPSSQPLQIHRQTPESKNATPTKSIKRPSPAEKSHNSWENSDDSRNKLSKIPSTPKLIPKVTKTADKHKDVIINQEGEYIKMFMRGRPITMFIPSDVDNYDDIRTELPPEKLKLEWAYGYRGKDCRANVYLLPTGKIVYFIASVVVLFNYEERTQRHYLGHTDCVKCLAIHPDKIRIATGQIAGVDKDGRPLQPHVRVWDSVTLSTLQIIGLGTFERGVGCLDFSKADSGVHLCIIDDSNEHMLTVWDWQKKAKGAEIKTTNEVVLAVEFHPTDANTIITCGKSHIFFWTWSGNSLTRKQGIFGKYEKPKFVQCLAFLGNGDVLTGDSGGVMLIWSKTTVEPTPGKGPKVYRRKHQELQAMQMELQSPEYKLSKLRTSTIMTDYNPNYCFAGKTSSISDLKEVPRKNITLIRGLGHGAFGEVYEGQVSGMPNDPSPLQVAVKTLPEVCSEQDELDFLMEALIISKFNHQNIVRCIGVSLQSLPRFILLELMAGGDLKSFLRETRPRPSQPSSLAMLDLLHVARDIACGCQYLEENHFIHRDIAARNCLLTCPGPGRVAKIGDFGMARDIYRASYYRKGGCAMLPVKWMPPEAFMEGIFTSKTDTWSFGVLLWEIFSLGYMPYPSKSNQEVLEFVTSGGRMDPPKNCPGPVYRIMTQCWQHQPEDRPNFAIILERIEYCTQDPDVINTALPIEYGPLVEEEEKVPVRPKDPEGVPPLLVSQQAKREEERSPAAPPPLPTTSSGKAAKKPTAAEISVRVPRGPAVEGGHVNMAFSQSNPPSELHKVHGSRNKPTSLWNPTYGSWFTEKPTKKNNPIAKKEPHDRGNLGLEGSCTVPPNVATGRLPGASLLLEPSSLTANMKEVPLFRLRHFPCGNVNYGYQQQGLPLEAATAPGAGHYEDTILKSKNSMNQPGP
- measurement_description: Ba/F3 cell proliferation assay, EML4-ALK wt (variant 1)
- Assay type: cell-based
- condition_summary: 72 hours, CellTiter-Glo
observed_property: IC50

CCc1noc2c1-c1cnc(N)c(c1)O[C@H](C)c1cc(F)ccc1-c1ccnn1C2    0.1 to 50 nM

Lookup: So what's the measured IC50 for this one? `CCn1nc(OC)c2c1-c1cnc(N)c(c1)O[C@H](C)c1cc(F)ccc1-c1cc(C)nn1C2`
Found: 0.1 to 50 nM

Lookup: Thanks! And `Cc1nn(CC2CC2)c2c1Cn1ncnc1-c1ccc(F)cc1[C@@H](C)Oc1cc-2cnc1N` ?
Found: 0.1 to 50 nM

---

- study_system: Ba/F3 cells TPM3-TRKA (Homo sapiens)
- Construct: the other entry of the earlier key: TPM3 (P06753, Tropomyosin alpha-3 chain)
- Sequence (P04629 510-796 limits assumed): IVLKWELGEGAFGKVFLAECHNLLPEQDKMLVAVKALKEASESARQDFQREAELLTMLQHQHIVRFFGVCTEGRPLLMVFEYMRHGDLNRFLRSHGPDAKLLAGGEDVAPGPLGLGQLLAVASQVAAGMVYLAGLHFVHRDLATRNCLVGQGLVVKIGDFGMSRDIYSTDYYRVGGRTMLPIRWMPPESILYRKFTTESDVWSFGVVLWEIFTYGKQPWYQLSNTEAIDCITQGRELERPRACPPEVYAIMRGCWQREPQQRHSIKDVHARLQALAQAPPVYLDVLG
- measurement_description: Ba/F3 cell proliferation assay, TPM3-TRKA
- condition_summary: 72 hours, CellTiter-Glo, read-out: TPM3-NTRK1-wt IC50
pIC50: −log10 of the molar value.
observed_property: pIC50

Here is how some compounds turned out for pIC50.
CCc1noc2c1-c1cnc(N)c(c1)O[C@H](C)c1cc(F)ccc1-c1ncnn1C2 [Example 50]    < 6.30
C[C@H]1Oc2cc(cnc2N)-c2c(cnn2CC2CC2)Cn2ncnc2-c2ccc(F)cc21 [Example 70]    < 6.30
C[C@H]1Oc2cc(cnc2N)-c2c(cnn2CC2CC2)Cn2nc(Cl)cc2-c2ccc(F)cc21 [Example 74]    6.30 to 7.30
C[C@H]1Oc2cc(cnc2N)-c2c(C#N)ncn2Cc2nccnc2-c2ccc(F)cc21 [Example 46]    < 6.30

Kindly review the next compound as well.
Lookup: For Ba/F3 cells TPM3-TRKA (Homo sapiens), provide pIC50 of C[C@H]1Oc2cc(cnc2N)-c2c(cnn2CC2CC2)Cc2ncc(F)cc2-c2ccc(F)cc21 [Example 72] please.
Found: 6.30 to 7.30

---

- study_system: Ba/F3 cells EML4-ALK L1196M/G1202R (variant 1) (Homo sapiens, UniProt Q9UM73, G1202R/L1196M)
- Construct: echinoderm microtubule-associated protein-like 4 (EML4) gene and the ALK tyrosine kinase domain; the other entry of the earlier key: EML4 (Q9HC35, Echinoderm microtubule-associated protein-like 4)
- Sequence (Q9UM73 with tags, fused parts or gaps L1196M/G1202R): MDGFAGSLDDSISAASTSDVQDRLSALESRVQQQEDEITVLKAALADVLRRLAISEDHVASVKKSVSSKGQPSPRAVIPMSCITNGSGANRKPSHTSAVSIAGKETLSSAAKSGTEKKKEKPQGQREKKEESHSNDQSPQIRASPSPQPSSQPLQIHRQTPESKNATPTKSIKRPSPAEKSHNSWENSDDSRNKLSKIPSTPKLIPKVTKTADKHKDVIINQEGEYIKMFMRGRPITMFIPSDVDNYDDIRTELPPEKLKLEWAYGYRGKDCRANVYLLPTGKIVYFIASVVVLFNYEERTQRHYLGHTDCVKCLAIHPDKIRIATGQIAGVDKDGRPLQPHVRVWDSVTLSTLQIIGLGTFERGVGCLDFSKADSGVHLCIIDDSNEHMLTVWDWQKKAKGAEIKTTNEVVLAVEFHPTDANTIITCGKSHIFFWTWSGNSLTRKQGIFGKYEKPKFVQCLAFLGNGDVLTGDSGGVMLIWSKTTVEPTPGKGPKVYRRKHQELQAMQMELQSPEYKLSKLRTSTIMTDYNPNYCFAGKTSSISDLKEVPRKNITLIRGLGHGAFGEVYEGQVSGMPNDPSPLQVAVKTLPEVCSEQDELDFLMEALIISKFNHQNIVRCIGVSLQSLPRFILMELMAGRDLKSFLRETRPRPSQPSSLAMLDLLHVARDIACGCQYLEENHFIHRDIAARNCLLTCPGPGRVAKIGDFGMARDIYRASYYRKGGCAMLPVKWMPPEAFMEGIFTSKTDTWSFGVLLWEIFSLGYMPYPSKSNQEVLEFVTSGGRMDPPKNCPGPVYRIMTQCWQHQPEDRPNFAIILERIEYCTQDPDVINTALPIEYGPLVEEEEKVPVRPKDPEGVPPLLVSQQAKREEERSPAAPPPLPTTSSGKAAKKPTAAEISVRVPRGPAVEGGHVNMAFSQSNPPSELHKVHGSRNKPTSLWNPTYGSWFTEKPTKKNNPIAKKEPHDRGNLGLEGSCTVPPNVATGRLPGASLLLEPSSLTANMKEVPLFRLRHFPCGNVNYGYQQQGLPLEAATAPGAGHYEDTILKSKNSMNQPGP
- measurement_description: Ba/F3 cell proliferation assay, EML4-ALK L1196M/G1202R (variant 1)
- condition_summary: 72 hours, CellTiter-Glo
Reported IC50 values for a set of compounds

Lookup: So what's the measured IC50 for this one? `C[C@H]1Oc2cc(cnc2N)-c2c(C#N)ncn2Cc2ncncc2-c2ccc(F)cc21`
Found: > 500 nM

Lookup: Thanks! And `C[C@H]1Oc2cc(cnc2N)-c2c(c(Cl)nn2CC2CC2)Cc2nn(C)nc2-c2ccc(F)cc21` ?
Found: 0.1 to 50 nM

Lookup: Thanks! And `C[C@H]1Oc2cc(cnc2N)-c2c(cnn2CC2CC2)Cn2nc(Cl)cc2-c2ccc(F)cc21` ?
Found: 0.1 to 50 nM

Lookup: Thanks! And `C[C@H]1Oc2cc(cnc2N)-c2c(C3CCC3)noc2Cn2ncnc2-c2ccc(F)cc21` ?
Found: 50 to 500 nM
